Assay: total protein half-life in vivo (active degradation + dilution); higher = more stable protein
Settings: wild type E. coli NCM3722; growth: C-lim chemostat; doubling time 3 h
experimental-endpoint: total protein half-life in vivo (h)
Report the figure in h without appending any unit label.

[in] Retrieve total protein half-life in vivo measured for MSEIVIRHAETRDYEAIRQIHAQPEVYCNTLQVPHPSDHMWQERLADRPGIKQLVACIDGDVVGHLTIDVQQRPRRSHVADFGICVDSRWKNRGVASALMREMIEMCDNWLRVDRIELTVFVDNAPAIKVYKKYGFEIEGTGKKYALRNGEYVDAYYMARVK and print it.
[out] 3.03

[in] Using the record for MKKKTTLSEEDQALFRQLMAGTRKIKQDTIVHRPQRKKISEVPVKRLIQEQADASHYFSDEFQPLLNTEGPVKYVRPDVSHFEAKKLRRGDYSPELFLDLHGLTQLQAKQELGALIAACRREHVFCACVMHGHGKHILKQQTPLWLAQHPHVMAFHQAPKEYGGDAALLVLIEVEEWLPPELP [P0A8B2] , state its measured total protein half-life in vivo.
[out] 2.46

[in] Give reported total protein half-life in vivo value for MQLNITGNNVEITEALREFVTAKFAKLEQYFDRINQVYVVLKVEKVTHTSDATLHVNGGEIHASAEGQDMYAAIDGLIDKLARQLTKHKDKLKQH [P0AFX0]
[out] 2.51

[in] Identify total protein half-life in vivo associated with the sequence MDLQHWQAQFENWLKNHHQHQDAAHDVCHFRRVWATAQKLAADDDVDMLVILTACYFHDIVSLAKNHPQRQRSSILAAEETRRLLREEFEQFPAEKIEAVCHAIAAHSFSAQIAPLTTEAKIVQDADRLEALGAIGLARVFAVSGALGVALFDGEDPFAQHRPLDDKRYALDHFQTKLLKLPQTMQTARGKQLAQHNAHFLVEFMAKLSAELAGENEGVDHKVIDAFSSAG
[out] 2.09

* * *

Assignment: determine reported total protein half-life in vivo for the given sequences.
Assay: total protein half-life in vivo (active degradation + dilution); higher = more stable protein
Conditions: wild type E. coli NCM3722; growth: C-lim chemostat; doubling time 12 h
Give your result in h as a bare value.

[in] Answer with the recorded total protein half-life in vivo of MTTLAIDIGGTKLAAALIGADGQIRDRRELPTPASQTPEALRDALSALVSPLQAHAQRVAIASTGIIRDGSLLALNPHNLGGLLHFPLVKTLEQLTNLPTIAINDAQAAAWAEFQALDGDITDMVFITVSTGVGGGVVSGCKLLTGPGGLAGHIGHTLADPHGPVCGCGRTGCVEAIASGRGIAAAAQGELAGADAKTIFTRAGQGDEQAQQLIHRSARTLARLIADIKATTDCQCVVVGGSVGLAEGYLALVETYLAQEPAAFHVDLLAAHYRHDAGLLGAALLAQGEKL only.
[out] 9.07

[in] Provide measured total protein half-life in vivo value, entry: MPWIQLKLNTTGANAEDLSDALMEAGAVSITFQDTHDTPVFEPLPGETRLWGDTDVIGLFDAETDMNDVVAILENHPLLGAGFAHKIEQLEDKDWEREWMDNFHPMRFGERLWICPSWRDVPDENAVNVMLDPGLAFGTGTHPTTSLCLQWLDSLDLTGKTVIDFGCGSGILAIAALKLGAAKAIGIDIDPQAIQASRDNAERNGVSDRLELYLPKDQPEEMKADVVVANILAGPLRELAPLISVLPVSGGLLGLSGILASQAESVCEAYADSFALDPVVEKEEWCRITGRKN [P0A8T1]
[out] 9.36

* * *

Test: total protein half-life in vivo (active degradation + dilution); higher = more stable protein
Conditions: E. coli NCM3722 delta-hslV; growth: N-lim chemostat; doubling time 6 h
experimental-endpoint: total protein half-life in vivo
Report as: number unit

[in] Dear colleague, please send me the reported total protein half-life in vivo for MADVHDKATRSKNMRAIATRDTAIEKRLASLLTGQGLAFRVQDASLPGRPDFVVDEYRCVIFTHGCFWHHHHCYLFKVPATRTEFWLEKIGKNVERDRRDISRLQELGWRVLIVWECALRGREKLTDEALTERLEEWICGEGASAQIDTQGIHLLA when you can.
[out] 3.63 h

[in] Output measured total protein half-life in vivo for this item: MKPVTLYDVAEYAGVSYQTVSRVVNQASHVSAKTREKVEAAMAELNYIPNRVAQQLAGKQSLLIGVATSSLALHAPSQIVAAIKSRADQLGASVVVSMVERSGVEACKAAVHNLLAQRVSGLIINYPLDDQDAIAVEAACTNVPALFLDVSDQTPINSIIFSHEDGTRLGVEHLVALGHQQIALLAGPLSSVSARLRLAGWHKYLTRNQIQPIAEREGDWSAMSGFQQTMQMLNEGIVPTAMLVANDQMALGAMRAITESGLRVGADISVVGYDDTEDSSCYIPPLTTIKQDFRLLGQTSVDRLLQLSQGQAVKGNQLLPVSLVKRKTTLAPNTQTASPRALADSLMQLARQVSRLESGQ
[out] 4.55 h

[in] Using known records, supply total protein half-life in vivo for MIPEKRIIRRIQSGGCAIHCQDCSISQLCIPFTLNEHELDQLDNIIERKKPIQKGQTLFKAGDELKSLYAIRSGTIKSYTITEQGDEQITGFHLAGDLVGFDAIGSGHHPSFAQALETSMVCEIPFETLDDLSGKMPNLRQQMMRLMSGEIKGDQDMILLLSKKNAEERLAAFIYNLSRRFAQRGFSPREFRLTMTRGDIGNYLGLTVETISRLLGRFQKSGMLAVKGKYITIENNDALAQLAGHTRNVA [P0A9E5]
[out] 1.2 h

[in] Read off the recorded total protein half-life in vivo for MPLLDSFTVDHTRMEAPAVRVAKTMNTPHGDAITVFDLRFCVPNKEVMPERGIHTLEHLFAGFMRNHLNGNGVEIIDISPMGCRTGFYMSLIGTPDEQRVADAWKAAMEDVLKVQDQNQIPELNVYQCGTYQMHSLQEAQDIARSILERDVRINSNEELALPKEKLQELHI
[out] 4.37 h

[in] Retrieve total protein half-life in vivo measured for MKNKLPPFIEIYRALIATPSISATEEALDQSNADLITLLADWFKDLGFNVEVQPVPGTRNKFNMLASIGQGAGGLLLAGHTDTVPFDDGRWTRDPFTLTEHDGKLYGLGTADMKGFFAFILDALRDVDVTKLKKPLYILATADEETSMAGARYFAETTALRPDCAIIGEPTSLQPVRAHKGHISNAIRIQGQSGHSSDPARGVNAIELMHDAIGHILQLRDNLKERYHYEAFTVPYPTLNLGHIHGGDASNRICACCELHMDIRPLPGMTLNELNGLLNDALAPVSERWPGRLTVDELHPPIPGYECPPNHQLVEVVEKLLGAKTEVVNYCTEAPFIQTLCPTLVLGPGSINQAHQPDEYLETRFIKPTRELITQVIHHFCWH and print it.
[out] 4.64 h

[in] Answer with the recorded total protein half-life in vivo of MNTPAQLSLPLYLPDDETFASFWPGDNSSLLAALQNVLRQEHSGYIYLWAREGAGRSHLLHAACAELSQRGDAVGYVPLDKRTWFVPEVLDGMEHLSLVCIDNIECIAGDELWEMAIFDLYNRILESGKTRLLITGDRPPRQLNLGLPDLASRLDWGQIYKLQPLSDEDKLQALQLRARLRGFELPEDVGRFLLKRLDREMRTLFMTLDQLDRASITAQRKLTIPFVKEILKL only.
[out] 5.42 h

[in] Annotate the sequence MVSRRVQALLDQLRAQGIQDEQVLNALAAVPREKFVDEAFEQKAWDNIALPIGQGQTISQPYMVARMTELLELTPQSRVLEIGTGSGYQTAILAHLVQHVCSVERIKGLQWQARRRLKNLDLHNVSTRHGDGWQGWQARAPFDAIIVTAAPPEIPTALMTQLDEGGILVLPVGEEHQYLKRVRRRGGEFIIDTVEAVRFVPLVKGELA [P0A7A5] with its measured total protein half-life in vivo.
[out] 4.65 h

[in] Supply recorded total protein half-life in vivo for MSKVCIIAWVYGRVQGVGFRYTTQYEAKRLGLTGYAKNLDDGSVEVVACGEEGQVEKLMQWLKSGGPRSARVERVLSEPHHPSGELTDFRIR [P0AB65] here.
[out] 5.59 h

[in] Entry MTDNPNKKTFWDKVHLDPTMLLILLALLVYSALVIWSASGQDIGMMERKIGQIAMGLVIMVVMAQIPPRVYEGWAPYLYIICIILLVAVDAFGAISKGAQRWLDLGIVRFQPSEIAKIAVPLMVARFINRDVCPPSLKNTGIALVLIFMPTLLVAAQPDLGTSILVALSGLFVLFLSGLSWRLIGVAVVLVAAFIPILWFFLMHDYQRQRVMMLLDPESDPLGAGYHIIQSKIAIGSGGLRGKGWLHGTQSQLEFLPERHTDFIFAVLAEELGLVGILILLALYILLIMRGLWIAARAQTTFGRVMAGGLMLILFVYVFVNIGMVSGILPVVGVPLPLVSYGGSALIVLMAGFGIVMSIHTHRKMLSKSV [P0ABG7] needs its total protein half-life in vivo filled in; supply it.
[out] 5.73 h

[in] Consider the sequence MDKIHAMQLFIKVAELESFSRAADFFALPKGSVSRQIQALEHQLGTQLLQRTTRRVKLTPEGMTYYQRAKDVLSNLSELDGLFQQDATSISGKLRIDIPPGIAKSLLLPRLSEFLYLHPGIELELSSHDRPVDILHDGFDCVIRTGALPEDGVIARPLGKLTMVNCASPHYLTRFGYPQSPDDLTSHAIVRYTPHLGVHPLGFEVASVNGVQWFKSGGMLTVNSSENYLTAGLAGLGIIQIPRIAVREALRAGRLIEVLPGYRAEPLSLSLVYPQRRELSRRVNLFMQWLAGVMKEYLD and give its recorded total protein half-life in vivo.
[out] 2.08 h

[in] Give the measured total protein half-life in vivo for MFQQQKDWETRENAFAAFTMGPLTDFWRQRDEAEFTGVDDIPVRFVRFRAQHHDRVVVICPGRIESYVKYAELAYDLFHLGFDVLIIDHRGQGRSGRLLADPHLGHVNRFNDYVDDLAAFWQQEVQPGPWRKRYILAHSMGGAISTLFLQRHPGVCDAIALTAPMFGIVIRMPSFMARQILNWAEAHPRFRDGYAIGTGRWRALPFAINVLTHSRQRYRRNLRFYADDPTIRVGGPTYHWVRESILAGEQVLAGAGDDATPTLLLQAEEERVVDNRMHDRFCELRTAAGHPVEGGRPLVIKGAYHEILFEKDAMRSVALHAIVDFFNRHNSPSGNRSTEV
[out] 4.87 h

Hey, just so you know, these numbers are from the supplement of paper PMC11246515.
